Consider the following molecules; for each one, report its melting point.

Record excerpt, results attached:
CC(C)(C)c1ccc(S(=O)(=O)N[C@H]2CCCNC2=O)cc1 [Example 16]
155 to 156 °C
O=C1NCCC[C@@H]1NS(=O)(=O)c1ccccc1C(F)(F)F [Example 6]
161 to 163 °C
O=C1NCCC[C@@H]1NS(=O)(=O)c1c(F)cccc1F [Example 9]
152 to 153 °C

Each molecule below has a reported value. Please supply its melting point.
1. O=C1NCCC[C@@H]1NS(=O)(=O)c1ccccc1F [Example 3]
2. O=C1NCCC[C@@H]1NS(=O)(=O)c1ccc(F)cc1F [Example 7]
3. O=C1NCCC[C@@H]1NS(=O)(=O)c1ccc(F)c(F)c1 [Example 10]

[out]
1: 180 to 183 °C; 2: 162 to 163 °C; 3: 153 to 155 °C

For every listed record, write down its melting point.
1. O=C1NCCC[C@@H]1NS(=O)(=O)c1cc(F)ccc1F [Example 8]
2. O=C1NCCC[C@@H]1NS(=O)(=O)c1cccc(C(F)(F)F)c1 [Example 5]
3. CCCCCCCCc1ccc(S(=O)(=O)N[C@H]2CCCNC2=O)cc1 [Example 19]
4. O=C1NCCC[C@@H]1NS(=O)(=O)c1ccc(F)cc1 [Example 1]

[out]
1. 183 to 185 °C
2. 158 to 160 °C
3. 98 to 99 °C
4. 153 to 156 °C

Respectfully, I request melting point for each entry included below.
1. O=C1NCCC[C@@H]1NS(=O)(=O)c1cccc(F)c1 [Example 2]
2. O=C1NCCC[C@@H]1NS(=O)(=O)c1cc(F)cc(F)c1 [Example 11]

[out]
159 to 160 °C
170 to 174 °C
